test system: p53 signaling (p53RE-bla HCT-116 cells); test: cells; settings: Homo sapiens, HCT-116, read-out: p53 activation EC50
pEC50: −log10 of the molar value.
MEASURE: pEC50

[[record]]
input_smiles = "O=C(O)CCCc1ccc(N(CCCl)CCCl)cc1"
measured_target = "p53 signaling (p53RE-bla HCT-116 cells)"
recorded_value = 4.65


---

Target or system p53RE-bla HCT-116 cells; recorded quantity Viability Efficacy, RLM.
MEASURE: Viability Efficacy, RLM

[[record]]
compound = "CCOP(=S)(OCC)SCn1nnc2ccccc2c1=O [Azinphos-ethyl]"
recorded_value = "inactive"

[[record]]
compound = "Cc1ccccc1OP(=O)(Oc1ccccc1C)Oc1ccccc1C [Tri-o-cresyl phosphate]"
recorded_value = "inactive"

[[record]]
compound = "Oc1c(Cl)cc(Cl)c(Cl)c1Cl [2,3,4,6-Tetrachlorophenol]"
recorded_value = "inactive"

[[record]]
compound = "COP(=S)(OC)Oc1ccc(S(=O)(=O)N(C)C)cc1 [Famphur]"
recorded_value = "inactive"

[[record]]
compound = "CCOP(=S)(OCC)Oc1cc(C)nc(N(CC)CC)n1 [Pirimiphos-ethyl]"
recorded_value = "inactive"


---

system: p53 signaling (p53RE-bla HCT-116 cells); assay: cells; details: Homo sapiens, HCT-116
Response field label: string, one of 1 (yes) (EC50 strictly below 4 µM) or 0 (no).

[[record]]
compound = "COP(=S)(OC)Oc1ccc(S(=O)(=O)N(C)C)cc1 [Famphur]"
measured_target = "p53 signaling (p53RE-bla HCT-116 cells)"
classification = "1 (yes)"

[[record]]
compound = "CCSC(=O)N1CCCCCC1 [Molinate]"
measured_target = "p53 signaling (p53RE-bla HCT-116 cells)"
classification = "1 (yes)"

[[record]]
compound = "CCOP(=S)(OCC)SCn1nnc2ccccc2c1=O [Azinphos-ethyl]"
measured_target = "p53 signaling (p53RE-bla HCT-116 cells)"
classification = "1 (yes)"

[[record]]
compound = "CCOP(=S)(OCC)Oc1nc(Cl)c(Cl)cc1Cl [Chlorpyrifos]"
measured_target = "p53 signaling (p53RE-bla HCT-116 cells)"
classification = "1 (yes)"

[[record]]
compound = "COP(N)(=O)SC (centres unmarked) [Methamidophos]"
measured_target = "p53 signaling (p53RE-bla HCT-116 cells)"
classification = "0 (no)"

[[record]]
compound = "CCOP(=S)(OCC)O/N=C(\\C#N)c1ccccc1 [Phoxim]"
measured_target = "p53 signaling (p53RE-bla HCT-116 cells)"
classification = "0 (no)"

[[record]]
compound = "COP(=S)(OC)Oc1cc(Cl)c(Br)cc1Cl [Bromofos]"
measured_target = "p53 signaling (p53RE-bla HCT-116 cells)"
classification = "0 (no)"

[[record]]
compound = "CCOP(=S)(OCC)OC(Cl)C(Cl)(Cl)Cl (centres unmarked) [Chlorethoxyfos]"
measured_target = "p53 signaling (p53RE-bla HCT-116 cells)"
classification = "0 (no)"

[[record]]
compound = "CCOP(=S)(OCC)Oc1ccc([N+](=O)[O-])cc1 [Parathion]"
measured_target = "p53 signaling (p53RE-bla HCT-116 cells)"
classification = "1 (yes)"

[[record]]
compound = "CNP(=O)(OC)Oc1ccc(C(C)(C)C)cc1Cl (centres unmarked) [Crufomate]"
measured_target = "p53 signaling (p53RE-bla HCT-116 cells)"
classification = "0 (no)"

[[record]]
compound = "CNC(=O)O/N=C(\\SC)C(=O)N(C)C [Oxamyl]"
measured_target = "p53 signaling (p53RE-bla HCT-116 cells)"
classification = "0 (no)"


---

test system: p53 signaling (p53RE-bla HCT-116 cells); assay: cells; type: cell-based; conditions: Homo sapiens, HCT-116, read-out: Efficacy, p53 activation, primary screening
// values below are reported Emax
MEASURE: Emax (%)

[[record]]
molecule = "Cn1cnc([N+](=O)[O-])c1Sc1ncnc2nc[nH]c12"
measured_target = "p53 signaling (p53RE-bla HCT-116 cells)"
result_units = "%"
recorded_value = 39.9

[[record]]
molecule = "CCOC(=O)NC(=S)Nc1ccccc1NC(=S)NC(=O)OCC [Thiophanate]"
measured_target = "p53 signaling (p53RE-bla HCT-116 cells)"
result_units = "%"
recorded_value = 70.2

[[record]]
molecule = "Oc1cc(Cl)c(Cl)c(Cl)c1"
measured_target = "p53 signaling (p53RE-bla HCT-116 cells)"
result_units = "%"
recorded_value = 25.7


---

tested on: p53 signaling (p53RE-bla HCT-116 cells); assay: cells; assay type: cell-based; settings: Homo sapiens, HCT-116, read-out: p53 activation EC50, cherry pick confirmation
pEC50: −log10 of the molar value. Counter-ions that a name gives are not always drawn.
MEASURE: pEC50

[[record]]
molecule = "N[C@@H](Cc1ccc(N(CCCl)CCCl)cc1)C(=O)O"
recorded_value = 4.81

[[record]]
molecule = "CCC[S+]([O-])c1ccc2[nH]c(NC(=O)OC)nc2c1 (centres unmarked) [Albendazole oxide]"
recorded_value = 4.69

[[record]]
molecule = "CCOC(=O)C1(c2ccccc2)CCN(CCC(C#N)(c2ccccc2)c2ccccc2)CC1 [Diphenoxylate hydrochloride]"
recorded_value = 5.08

[[record]]
molecule = "COc1c(C)c2c(c(O)c1C/C=C(\\C)CCC(=O)OCCN1CCOCC1)C(=O)OC2 [Mycophenolate mofetil]"
recorded_value = 6.68

[[record]]
molecule = "COP(N)(=S)Oc1ccccc1C(=O)OC(C)C (centres unmarked)"
recorded_value = 5.69

[[record]]
molecule = "Cc1ccccc1C(=O)Nc1ccc(C(=O)N2CCCC(N(C)C)c3ccccc32)cc1 (centres unmarked)"
recorded_value = 5.87

[[record]]
molecule = "COc1cccc2c1C(=O)c1c(O)c3c(c(O)c1C2=O)C[C@@](O)(C(=O)CO)C[C@@H]3O[C@H]1C[C@H](N)[C@H](O[C@@H]2CCCCO2)[C@H](C)O1"
recorded_value = 5.12

[[record]]
molecule = "CC[n+]1c(-c2ccccc2)c2cc(N)ccc2c2ccc(N)cc21 [Ethidium bromide]"
recorded_value = 5.27


---

test system: p53RE-bla HCT-116 cells; conditions: read-out: Viability EC50, primary screening
pEC50: −log10 of the molar value.
MEASURE: pEC50

[[record]]
input_smiles = "Oc1ccc(Cl)cc1Sc1cc(Cl)ccc1O"
measure = "pEC50"
recorded_value = 4.73

[[record]]
input_smiles = "Oc1ccc(C2(c3ccc(O)cc3)c3ccccc3-c3ccccc32)cc1"
measure = "pEC50"
recorded_value = 4.31


---

tested on: p53 signaling (p53RE-bla HCT-116 cells); test: cells; format: cell-based; conditions: Homo sapiens, HCT-116, read-out: Efficacy, p53 activation, primary screening
Assign class by Emax: not lower than 50% means Condition met; lower than 50% means Condition not met.

[[record]]
molecule = "O=C(O)Cc1ccccc1Nc1c(Cl)cccc1Cl [Diclofenac sodium]"
classification = "Condition not met"

[[record]]
molecule = "COC(=O)Nc1nc2ccc(Sc3ccccc3)cc2[nH]1"
classification = "Condition met"

[[record]]
molecule = "Nc1cc(Cl)ccc1O"
classification = "Condition met"

[[record]]
molecule = "Oc1ccc(Oc2ccccc2)cc1"
classification = "Condition not met"

[[record]]
molecule = "O=C(Nc1cccc(C(F)(F)F)c1)c1cc(Br)cc(Br)c1O"
classification = "Condition not met"

[[record]]
molecule = "Oc1c(Cl)c(Cl)cc(Cl)c1Cl"
classification = "Condition not met"

[[record]]
molecule = "COc1cc([C@@H]2c3cc4c(cc3[C@@H](O[C@@H]3O[C@@H]5CO[C@@H](C)O[C@H]5[C@H](O)[C@H]3O)[C@H]3COC(=O)[C@H]23)OCO4)cc(OC)c1O [etoposide, reference compound]"
classification = "Condition met"

[[record]]
molecule = "CN(C)c1ccc(C(=C2C=CC(=[N+](C)C)C=C2)c2ccc(N(C)C)cc2)cc1"
classification = "Condition met"


---

Target or system p53 signaling (p53RE-bla HCT-116 cells); recorded quantity p53 activation EC50, cherry pick confirmation.
Structures can show the parent of a compound that is named as a salt.
MEASURE: p53 activation EC50, cherry pick confirmation

[[record]]
compound = "CC(C)C[C@H](NC(=O)[C@H](CCc1ccccc1)NC(=O)CN1CCOCC1)C(=O)N[C@@H](Cc1ccccc1)C(=O)N[C@@H](CC(C)C)C(=O)[C@@]1(C)CO1"
recorded_value = "inactive"

[[record]]
compound = "CCCSc1ccc2nc(NC(=O)OC)[nH]c2c1"
recorded_value = "inactive"

[[record]]
compound = "O=C(N/N=C/c1ccc([N+](=O)[O-])o1)c1ccc(O)cc1 [Nifuroxazide]"
recorded_value = "inactive"

[[record]]
compound = "CC(C)(C)[C@H]1CC[C@H](CC2=C(O)C(=O)c3ccccc3C2=O)CC1"
recorded_value = "inactive"

[[record]]
compound = "CC(=O)OC[C@H]1O[C@@H](n2ncc(=O)[nH]c2=O)[C@H](OC(C)=O)[C@@H]1OC(C)=O"
recorded_value = "inactive"

[[record]]
compound = "CC1=C(C(=O)Nc2ccccc2)S(=O)(=O)CCO1"
recorded_value = "inactive"

[[record]]
compound = "CC/C(=C(/CC)c1ccc(O)cc1)c1ccc(O)cc1"
recorded_value = "inactive"

[[record]]
compound = "O=c1cc(-c2ccc(O)cc2)oc2cc(O)cc(O)c12"
recorded_value = "inactive"

[[record]]
compound = "CCOC(=O)C1(c2ccccc2)CCN(CCC(C#N)(c2ccccc2)c2ccccc2)CC1 [Diphenoxylate hydrochloride]"
recorded_value = "inactive"

[[record]]
compound = "Cc1cc(=O)oc2cc(N(C)C)ccc12"
recorded_value = "inactive"

[[record]]
compound = "CO.COc1cc(Nc2c(C#N)cnc3cc(OCCCN4CCN(C)CC4)c(OC)cc23)c(Cl)cc1Cl [Bosutinib methanoate]"
recorded_value = "inactive"

[[record]]
compound = "CCOc1ccc2c(c1)C(C)=CC(C)(C)N2"
recorded_value = "inactive"

[[record]]
compound = "COc1cc(/C=C/C(=O)CC(=O)/C=C/c2ccc(O)c(OC)c2)ccc1O"
recorded_value = "inactive"

[[record]]
compound = "O=C(NC(=O)c1c(F)cccc1F)Nc1cc(Cl)c(Oc2ncc(C(F)(F)F)cc2Cl)c(Cl)c1"
recorded_value = "inactive"

[[record]]
compound = "COC(=O)C1=C(C)NC(COC(N)=O)=C(C(=O)OC(C)C)C1c1cccc(Cl)c1Cl (centres unmarked)"
recorded_value = "inactive"

[[record]]
compound = "COC(=O)Nc1nc2ccccc2[nH]1"
recorded_value = "inactive"

[[record]]
compound = "[F][Sn]([c]1ccccc1)([c]1ccccc1)[c]1ccccc1 [Triphenyltin fluoride]"
recorded_value = "inactive"


Entry source: paper PMC9151520
